Assay: Human HepG2 cell viability assay in 384 well format
Assay type: toxicity, cell-based
Design: dose 125 nL, time 70.5 hour; concentration not given beside the values
Details: HepG2 cells, read-out: Inhibition
# cytotoxicity at 70.5 h per record follows
Note: unit % is implicit; provide only the numeric part.

Recorded results for 10 compounds are shown here.
Cn1cc(CN(CC2(O)CNCCOC2)C2CCCCC2)cn1 (stereo unspecified) = -8.06
CN1CC(=O)N(C2CCCNC2)Cc2c(NC3CCC3)ncnc21 (stereo unspecified) = -3.06
Cc1cnc2n1CCN(C)C21CCN(C(=O)CC(C)C)CC1 = 3.32
CC(C)NC(=O)N1CCC2(COCc3cnc(-c4ccccc4)nc32)C1 (stereo unspecified) = 9.3
CCn1ccc2ccnc(CC3CN(C(=O)c4ccc(F)cc4)C3)c21 = -6.52
CCS(=O)(=O)N1CCC[C@]2(C(=O)N(C)C)CN(c3ccccn3)C[C@@H]2C1 = -0.152
Cc1cnn(CC2CCCN2Cc2c(C)noc2C)c1 (stereo unspecified) = -3.04
CS(=O)(=O)N1CC[C@@H]2[C@@H]1CCN2Cc1ccc2c(c1)OCO2 = -0.795
O=C(O)c1csc(S(=O)(=O)Nc2cccc(OC(F)F)c2)c1 = -12.7
CC(=O)N1CC[C@H]2NC(=O)N(Cc3ccccc3)C(=O)[C@H]21 = -1.45

We now examine a further compound.
Task: Please look up its cytotoxicity at 70.5 h: `CCOc1ccc(C(=O)N2Cc3cnc(CC(C)C)nc3C2)o1`
Output: -4.06
